assayedTarget: protein kinase M (PKM), catalytic fragment of mixed rat brain PKC isozymes
protocolNotes: Inhibition of PKM phosphorylation of histone IIIS
Type: biochemical
runConditions: histone IIIS as substrate, 10 minute reaction; read-out: half-maximal inhibition of PKM
measurementName: IC50

IC50 reported for this substance DGK(A/S) peptide: same peptide with an alanine substituted for the serine at residue 10 (SEQ ID NO: 16) (KASKKKKRAAFKRKSSKK) : ~800 nM

----------
# nmol phosphatidic acid/mg/h (DAG substrate specificity of DGK.zeta.) per record follows
assayedTarget: DGK.zeta. (Homo sapiens, UniProt Q13574)
Construct: The DGK.zeta. cDNA was expressed in pcDNA 1/AMP (Invitrogen) in the foward orientation; expressed in transfected cells; host or cells: COS-7
Sequence (Q13574 whole entry): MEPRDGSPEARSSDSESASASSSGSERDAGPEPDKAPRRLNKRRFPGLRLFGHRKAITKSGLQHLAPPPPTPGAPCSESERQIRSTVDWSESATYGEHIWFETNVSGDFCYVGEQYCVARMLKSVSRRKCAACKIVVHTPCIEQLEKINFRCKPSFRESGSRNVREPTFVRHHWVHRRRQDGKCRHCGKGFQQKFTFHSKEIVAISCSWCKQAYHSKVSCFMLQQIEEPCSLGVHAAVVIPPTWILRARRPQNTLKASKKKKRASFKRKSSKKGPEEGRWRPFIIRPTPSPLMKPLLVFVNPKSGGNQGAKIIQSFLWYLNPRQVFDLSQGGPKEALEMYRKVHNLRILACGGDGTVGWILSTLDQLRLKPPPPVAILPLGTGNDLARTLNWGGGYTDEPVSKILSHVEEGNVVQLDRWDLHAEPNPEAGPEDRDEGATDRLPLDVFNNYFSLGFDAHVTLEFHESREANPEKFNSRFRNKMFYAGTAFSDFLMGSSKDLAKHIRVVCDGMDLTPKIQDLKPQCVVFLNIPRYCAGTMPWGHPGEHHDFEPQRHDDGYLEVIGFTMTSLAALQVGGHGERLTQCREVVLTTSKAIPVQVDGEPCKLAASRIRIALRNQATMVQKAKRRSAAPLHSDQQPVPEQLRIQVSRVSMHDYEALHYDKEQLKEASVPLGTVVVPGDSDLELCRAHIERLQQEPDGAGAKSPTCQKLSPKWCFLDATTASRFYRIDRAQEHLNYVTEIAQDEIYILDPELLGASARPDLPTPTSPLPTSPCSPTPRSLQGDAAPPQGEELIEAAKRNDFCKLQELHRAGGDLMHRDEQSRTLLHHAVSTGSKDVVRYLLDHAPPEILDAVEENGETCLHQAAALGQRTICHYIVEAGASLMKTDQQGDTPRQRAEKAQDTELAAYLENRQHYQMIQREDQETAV
protocolNotes: DAG kinase assay, homogenates of DGK.zeta.-transfected COS-7 cells
Assay type: biochemical
runConditions: each diacylglycerol used as substrate; Table I

Some compounds with known nmol phosphatidic acid/mg/h (DAG substrate specificity of DGK.zeta.) results, for comparison:
{"moleculeSmiles": "CCCCCCCCCC(=O)OC[C@H](CO)OC(=O)CCCCCCCCC", "dataValue": "1440 ± 42 nmol phosphatidic acid/mg/h"}
{"moleculeSmiles": "CCCCC/C=C\\C/C=C\\C/C=C\\C/C=C\\CCCC(=O)O[C@@H](CO)COC(=O)CCCCCCCCCCCCCCCCC", "dataValue": "1106 ± 34 nmol phosphatidic acid/mg/h"}
{"moleculeSmiles": "CCCCCCCC/C=C\\CCCCCCCC(=O)O[C@@H](CO)COC(=O)CCCCCCCCCCCCCCCCC", "dataValue": "801 ± 13 nmol phosphatidic acid/mg/h"}

API: the following record is the query input.
For this compound ( CCCCCCCC/C=C\CCCCCCCC(=O)O[C@@H](CO)COC(=O)CCCCCCCCCCCCCCC ), measured nmol phosphatidic acid/mg/h (DAG substrate specificity of DGK.zeta.) is 805 ± 8 nmol phosphatidic acid/mg/h

----------
assayedTarget: DGK.zeta. (Homo sapiens)
Construct: The DGK.zeta. cDNA was expressed in pcDNA 1/AMP (Invitrogen) in the foward orientation; expressed in transfected cells; host or cells: COS-7
protocolNotes: DAG kinase assay, homogenates of DGK.zeta.-transfected COS-7 cells
Format: biochemical
runConditions: each diacylglycerol used as substrate; Table I
measurementName: nmol phosphatidic acid/mg/h (DAG substrate specificity of DGK.zeta.)

{"compound": "CCCCCCCC/C=C\\CCCCCCCC(=O)OC[C@H](CO)OC(=O)CCCCCCC/C=C\\CCCCCCCC [1,2-Dioleoyl-sn-glycerol]", "dataValue": "1021 ± 9 nmol phosphatidic acid/mg/h"}
{"compound": "CCCCCCCC/C=C\\CCCCCCCC(=O)OCC(O)COC(=O)CCCCCCC/C=C\\CCCCCCCC [1,3-Dioleoyl-sn-glycerol]", "dataValue": "110 ± 8 nmol phosphatidic acid/mg/h"}

Kindly consider the entry below.
Measured nmol phosphatidic acid/mg/h (DAG substrate specificity of DGK.zeta.), CCCCCCCC/C=C\CCCCCCCC(=O)OC[C@H](CO)OC(=O)CCCCCCCCCCCCCCC [1-Oleoyl-2-palmitoyl-sn-glycerol] : 856 ± 35 nmol phosphatidic acid/mg/h

Source: patent US5976875A
